IC50 overview
- System: Yap1 mRNA
- assay procedure: Dose-dependent inhibition of human Yap1 in A-431 cells (Example 8, 10,000 cells per well, RTS4814)
- Assay type: cell-based
- condition notes: A-431 cells, free uptake, approximately 48 hours, RTS4814; linear regression on log/linear plot
Strand notation (5' to 3'): a small letter for the sugar, then the base; units joined by * are phosphorothioate-linked, units joined directly phosphodiester-linked; [ ] holds rarer units or linkages, { } end groups; capitals alone tell only the bases. k = constrained ethyl (cEt); [5mC] = 5-methylcytosine; d = 2'-deoxy (DNA)
Form entry: value (µM) — number only.

>>> experimental_result("1075458 (antisense k[5mC]*k[5mC]*kA*d[5mC]*dA*dA*dT*dA*dT*dA*d[5mC]*dT*d[5mC]*k[5mC]*kA*kA) [compound 1075458]")
0.1
>>> experimental_result("1076427 (k[5mC]*kA*kA*dA*dT*dT*dT*dA*d[5mC]*dT*dG*dA*dT*k[5mC]*kT*k[5mC]; antisense) [compound 1076427]")
0.1

Quick one: give measured IC50 for 1076366 (antisense kA*kT*kT*dT*dA*d[5mC]*dA*dT*dG*dA*dG*dA*dG*kG*kA*kG) [compound 1076366]
0.04

Answer with the recorded IC50 for the substance listed here: 1076462 (kT*k[5mC]*kA*dG*dA*dA*dG*dG*dA*dT*dA*dT*dG*k[5mC]*kA*kG; antisense) [compound 1076462]
0.03

The values you see were collected from patent US11214803B2.
